# subject.of.test: UniProt P19021
# Sequence (P19021 whole entry): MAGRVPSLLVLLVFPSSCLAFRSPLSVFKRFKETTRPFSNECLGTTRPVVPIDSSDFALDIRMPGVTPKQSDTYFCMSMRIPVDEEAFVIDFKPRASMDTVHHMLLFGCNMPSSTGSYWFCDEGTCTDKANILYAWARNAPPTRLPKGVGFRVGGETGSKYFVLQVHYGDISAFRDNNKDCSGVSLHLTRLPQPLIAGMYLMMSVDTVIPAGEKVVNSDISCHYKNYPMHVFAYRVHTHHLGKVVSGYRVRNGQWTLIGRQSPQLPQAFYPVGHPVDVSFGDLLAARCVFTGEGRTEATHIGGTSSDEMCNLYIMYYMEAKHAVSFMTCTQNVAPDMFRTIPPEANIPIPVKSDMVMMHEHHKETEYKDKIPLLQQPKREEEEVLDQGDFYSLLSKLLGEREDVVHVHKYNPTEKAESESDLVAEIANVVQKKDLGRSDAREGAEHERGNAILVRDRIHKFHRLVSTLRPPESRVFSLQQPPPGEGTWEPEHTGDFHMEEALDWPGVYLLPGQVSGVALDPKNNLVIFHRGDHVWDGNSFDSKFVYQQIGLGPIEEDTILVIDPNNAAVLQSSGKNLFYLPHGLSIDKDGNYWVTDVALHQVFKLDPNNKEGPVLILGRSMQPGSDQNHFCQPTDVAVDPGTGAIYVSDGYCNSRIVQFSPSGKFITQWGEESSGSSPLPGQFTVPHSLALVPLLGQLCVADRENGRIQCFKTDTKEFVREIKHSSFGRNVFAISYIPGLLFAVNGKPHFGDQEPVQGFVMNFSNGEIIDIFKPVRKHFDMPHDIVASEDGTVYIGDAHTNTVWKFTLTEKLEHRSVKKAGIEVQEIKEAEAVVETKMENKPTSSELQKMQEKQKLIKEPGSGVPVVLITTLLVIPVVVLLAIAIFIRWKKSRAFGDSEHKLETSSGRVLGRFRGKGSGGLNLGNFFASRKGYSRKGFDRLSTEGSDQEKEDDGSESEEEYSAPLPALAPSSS
# protocol.details: Competitive inhibition of secreted PAM in human DMS53 cell culture medium using as(R)-Tyr-(S)-Val-Gly as substrate after 2 hrs by HPLC analysis
# Design: species or system DMS-53
Below, each entry is listed alongside its reported log10 IC50.
On a log10 scale: recorded IC50, unit µM.

Solved cases (8 shown):
CC(=O)N[C@@H](CC(C)C)C(=O)NCC(=O)OCC(=O)O 2.30
C[C@H](N)C(=O)N1CCC[C@H]1C(=O)OCC(=O)O 2.46
C[C@H](N)C(=O)N[C@@H](Cc1ccccc1)C(=O)OCC(=O)O 2.57
CC(=O)NCC(=O)OCC(=O)O 3.26
N[C@@H](Cc1ccccc1)C(=O)OCC(=O)O 3.20
C[C@H](NC(=O)CN)C(=O)N1CCC[C@H]1C(=O)OCC(=O)O 3.04
O=C(O)COC(=O)[C@@H]1CCCN1 2.70
CC(=O)OCC(=O)O 3.04

# next compound below
# returns recorded log10 IC50 (system: UniProt P19021) for `C[C@H](NC(=O)CN)C(=O)N[C@@H](Cc1ccccc1)C(=O)OCC(=O)O`
2.20

Taken from ChEMBL document CHEMBL2203217.
